Values from PubChem BioAssay

test: probe aDKK1 binding to arrayed compounds – biochemical, biotinylated probe, 635/667 nm fluorescence, primary screen (AID 1099); conditions: small-molecule microarray, higher = more signal;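 also: score merges 667nm spot fluorescence with signal to noise across triplicate slides; reference of the scale not given here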
Give composite z-score for every item shown.

Can you share its composite z-score? I mean this compound: Cc1ccc(S[C@]2(C(=O)NCCCN(C)C)CC(=O)N(C3Cc4ccccc4C3)[C@@H]2c2ccc(CO)cc2I)cc1
0.182

Can you share its composite z-score? I mean this compound: Cc1ccc(S[C@]2(C(=O)NCc3ccccc3)CC(=O)N(Cc3ccccc3C(F)(F)F)[C@@H]2c2ccc(CO)cc2)cc1
0.0191

Can you share its composite z-score? I mean this compound: COC(=O)C1(Cc2ccccc2)C=C2C(=C(C)C(=O)C2C)CN1 (centres undefined)
1.21

Can you share its composite z-score? I mean this compound: CC=CC(O)C1C=CC2C(=O)NC(=O)C2N1Nc1ccc(Cl)cc1Cl (centres undefined)
0.171

Can you share its composite z-score? I mean this compound: C=C(CCCC)/C(=C/C[C@H](OC(=O)c1ccncc1)c1cccc(OCCO)c1)c1cnc2ccccc2c1
-0.138

Can you share its composite z-score? I mean this compound: COCCOC(=O)N1C(=O)[C@@]2(c3cc(C#CCC(C(=O)OC)C(=O)OC)ccc31)[C@H](C(=O)Nc1nc3ccccc3s1)[C@H]1C(=O)O[C@H](c3ccccc3)[C@H](c3ccccc3)N1[C@@H]2c1ccc(OCCO)cc1
0.0831

Can you share its composite z-score? I mean this compound: C[N+](C)(C)CCCCNC(=O)[C@H]1C[C@H]2C(=O)N[C@@H](Cc3ccccc3)C(=O)N2[C@H]1c1cccc(OCCO)c1
0.104

Can you share its composite z-score? I mean this compound: C=CCOC(=O)[C@@H]1[C@H]2C(=O)O[C@H](c3ccccc3)[C@H](c3ccccc3)N2[C@H](c2ccc(OCCOC(=O)[C@H]3C[C@H]4C(=O)N[C@@H](CCCCN(C)C)C(=O)N4[C@H]3c3ccc(O)cc3)cc2)[C@@]12C(=O)Nc1ccc(I)cc12
0.0904

Can you share its composite z-score? I mean this compound: CCCCC(=C=CC[C@H](O)c1ccc(CO)o1)CCO
-0.0027

Can you share its composite z-score? I mean this compound: COC(=O)[C@H](Cc1ccc(O)cc1)N[C@@H](/C=C/C1CC1)[C@H](O)Cc1ccccc1
-0.29

Can you share its composite z-score? I mean this compound: CN(C)CCCCNC(=O)[C@H]1C[C@H]2C(=O)NCC(=O)N2[C@H]1c1ccc(O)cc1
-0.114

Can you share its composite z-score? I mean this compound: O=C1OCCC=C[C@H]2OC34C=CCN(c5ccc6ccccc6c5)C(=O)[C@H]3N(CCO)C(=O)[C@@H]4C12 (some centres undefined)
-0.886

Can you share its composite z-score? I mean this compound: COc1ccc(C(O)C2C=CC3C(=O)N(c4ccccc4)C(=O)C3N2Nc2ccc([N+](=O)[O-])cc2)c2ccccc12 (centres undefined)
0.662

Can you share its composite z-score? I mean this compound: CN1C(=O)C2C(C1=O)C1C=C(CCCO)C2C(C2CC2)N1Cc1cccc(OC(F)(F)F)c1 (centres undefined)
-0.656

Can you share its composite z-score? I mean this compound: C[C@]1(C(=O)O)c2ccccc2C(=O)N(Cc2cc(F)cc(C(F)(F)F)c2)[C@H]1c1ccc(CO)cc1
-0.0944

Can you share its composite z-score? I mean this compound: COC(=O)[C@@]1(Cc2ccc(OC)cc2)[C@H]2c3cc(C(=O)N4CCCC4)n(CCn4cc([N+](=O)[O-])nc4C)c3C[C@H]2CN1C(=O)c1ccccc1
2.46

Can you share its composite z-score? I mean this compound: COC(=O)[C@@]1(Cc2ccc(OC)cc2)[C@H]2c3cc(C(=O)N4CCCC4)n(Cc4ccc(Cl)c(C(F)(F)F)c4)c3C[C@H]2CN1C(=O)c1ccccc1
1.62

Can you share its composite z-score? I mean this compound: C=C(CCCC)/C(=C/C[C@H](OC(C)=O)c1cccc(OCCO)c1)c1cnc2ccccc2c1
-0.149

Can you share its composite z-score? I mean this compound: O=C(NCc1ccc(F)cc1)[C@H]1C[C@H]2C(=O)N3CCC[C@H]3C(=O)N2[C@H]1c1ccc(O)cc1
-0.294

Can you share its composite z-score? I mean this compound: [N-]=[N+]=Nc1ccccc1C[C@]1(C(=O)N2CCOCC2)N=C(c2ccc(OCCCO)cc2)O[C@H]1c1ccccc1N=[N+]=[N-]
0.651

Can you share its composite z-score? I mean this compound: COCCOC(=O)N1C(=O)[C@@]2(c3cc(C#CCNC(N)=O)ccc31)[C@H](C(=O)Nc1nc3ccccc3s1)[C@H]1C(=O)O[C@H](c3ccccc3)[C@H](c3ccccc3)N1[C@@H]2c1ccccc1OCCO
0.376

Can you share its composite z-score? I mean this compound: CC(C)N1C(=O)c2ccccc2[C@](C)(C(=O)NCC(F)(F)F)[C@@H]1c1ccc(CO)cc1
0.698

Can you share its composite z-score? I mean this compound: CC(=O)c1ccc(C(O)C2C=CC3C(=O)N(c4ccccc4)C(=O)C3N2Nc2ccc(C(C)C)cc2)cc1 (centres undefined)
1.46

Can you share its composite z-score? I mean this compound: CC1CC/C=C\[C@H]2OC34C=CCN(Cc5ccccc5)C(=O)[C@H]3N(CCCCCCO)C(=O)[C@@H]4C2C(=O)O1 (some centres undefined)
-0.0995

Can you share its composite z-score? I mean this compound: CN(C)CCCNC(=O)[C@@H]1c2ccccc2C(=O)N(Cc2ccccc2C(F)(F)F)[C@H]1c1ccc(CO)cc1
0.908

Can you share its composite z-score? I mean this compound: COC(=O)c1cccc([C@H]2OC(=CC(=O)OC(C)C)C[C@@H](c3cccc(C(=O)OC)c3)O2)c1
0.515

Can you share its composite z-score? I mean this compound: COC(=O)[C@@]1(Cc2ccc(OC)cc2)[C@H]2c3cc(C(=O)N(C)C)[nH]c3C[C@H]2CN1C(=O)c1ccccc1
0.416

Can you share its composite z-score? I mean this compound: C=CCC(OC(C)=O)[C@@H]1[C@@H](N(Cc2cccc3ccccc23)C(=O)c2ccc(-c3ccccc3)cc2)c2cc(OCCCO)ccc2N1C(=O)Cc1ccc2ccccc2c1 (some centres undefined)
-0.0459

Can you share its composite z-score? I mean this compound: Cc1ccc(S[C@]2(C(=O)NC3CC3)CC(=O)N(C(C)C)[C@@H]2c2ccc(CO)cc2I)cc1
-0.299
